Procedure Text: folding stability dG unfold (combined trypsin and chymotrypsin); higher = more stable
Quantity Measured: folding stability dG unfold

SAGGMKTIKLPPFTEEELEKVIEEAEKNPNSDVKITLPEGKEYYIKPPGKLKELKVEELPPLPESLESAGGS [r16_248_JUSTAS] = < -1 kcal/mol
SAGGMSKEEARKAIENPADATYTFTITTRPSTPTPSSTTTTVTAKVTDPDAFLDAVPEGHSVTVTASSAGGS [r16_116_JUSTAS] = < -1 kcal/mol

Alright, here's another sequence for you.
Ask: Recorded folding stability dG unfold of SAGGKDAIVNVVEIPIKIEVKTKTKNPILPDGIPIPETELEVKIEIPIKVKPVKVKLEKPGKIVSVEDSAGG [r13_148_TrMRF] , please.
Reply: < -1 kcal/mol

---

Procedure Text: folding stability dG unfold from trypsin proteolysis; higher = more stable
Quantity Measured: folding stability dG unfold (kcal/mol)
Could you give me the number in kcal/mol? Just the number is fine.

Field: example entries. Status: answers known.
SKKTIYIVNEDGSIIRFDEETGEITIFNKETGKEVKIKVEKKGNELIITIEVNGKKYKIKIPKGDIIPIKSA [r9_239_TrROS_Hall] = 2.32
SAGGSAGGSKPEYVLRVKIYNEETGELVEEIEITVKSKEEALKALKKLLPKDNVKIEVEILPPSAGGSAGGS [r12_578_TrROS_Hall] = 3.34
SAGGSAGGSAGGSGSVRIKVYNPKTGEVLELEVPEELVPAAVEAAKALGFEKVEVSPGKSAGGSAGGSAGGS [r4_102_TrMRF] = 1.59

Ask: Endpoint output: folding stability dG unfold of SAGAKVTVEPVKVEPLPNGEVKVTAKVTIYDPNTTKPTEIEVTGTYKLHPNGKPVKPETIVAEAIKKAASAG [r5_604_TrMRF] . Value?
Reply: 0.426

Data provenance is the supplement of paper PMC12764529.
